- Test system: IGROV1 ovarian
- procedure_summary: NCI tumour cell line growth inhibition, 48 h; in the data active means GI50 below about 0.43 µM; inactive means the rest
Just give me one of these, please: active, inactive

Solved entries (count: 2):
CC(=O)OC[C@]1(C)C=C2C(=O)[C@](C)(O)C3(CC3)C(C)=C2[C@H]1O	active
OCC(O)CC[CH2][Sn]([Br])([c]1ccccc1)[c]1ccccc1 (stereo not drawn)	inactive

Query block: Please share the test call associated with `CC/C(=C(/c1ccc(O)cc1)c1ccc(OCCNC)cc1)c1ccccc1` .
Result block: inactive

Query block: For `COc1ccc(/C(COc2c(-c3ccccc3)oc3ccccc3c2=O)=N\O)cc1` , what call appears in the results of this test?
Result block: inactive

Query block: Would you mind telling me which call this test gave `N#Cc1c(-c2ccc(F)cc2)nc(N/N=C/c2c[nH]c3ccccc23)nc1N1CCOCC1` ?
Result block: inactive

Query block: Check the results log: what was the call for `NC(=O)c1ccc(I)c(N)c1` ?
Result block: inactive

Query block: Test call for this compound, please: `O=C1c2cc(Cl)ccc2S(=O)(=O)c2c(NCCCNCCO)nc3ccccc3c21`
Result block: inactive

Query block: Hi, do you know how CC1(C)OC2[C@@H](CNC(=O)NC(=O)NC(=O)CI)O[C@@H](n3cnc4c(NC(=O)Nc5ccccc5)ncnc43)[C@H]2O1 (stereo partly drawn) came out in this test?
Result block: inactive
